Tested on: NCI-H460 lung
TEST_PROTOCOL: NCI-60 one-dose screen, 48 h (100 = growth as untreated, 0 = no growth, -100 = all killed)
CONDITION_SUMMARY: 10 µM
About 83,000 compounds went through this panel and 20% of them were active in at least one assay; those are over-represented in the sample as a whole.
Please note: condition met applies when growth is 60% or greater, and condition not met applies otherwise.

molecule="CCC(O)c1ccc(Br)cc1NC(=O)c1cccc(Cl)c1 (centres undefined)" class_assignment="condition not met"
molecule=CNC(=O)c1cc(Oc2ccc(NC(=O)Nc3ccc(Cl)c(OC4CCCCC4)c3)c(F)c2)ccn1 class_assignment="condition not met"
molecule=CCOC(=O)CNC(=O)Nc1ccc(Oc2ccc(NC(=O)NCC(=O)OCC)cc2)cc1 class_assignment="condition met"
molecule=CS(=O)(=O)Nc1ccc(OCc2nnc(-c3ccc(Cl)cc3)o2)c(F)c1 class_assignment="condition met"
molecule=COc1ccc(C(=O)/C=C/c2cc(-c3ccc4c(c3)OCO4)n[nH]2)cc1OC class_assignment="condition not met"
molecule=COc1ccc(-c2nc3sc(-c4ccccc4)c(-c4ccccc4)n3c2/C=C/c2ccc(F)cc2)cc1 class_assignment="condition met"
molecule="CCN(CC)CCn1c(=N)n(CC(O)c2ccc(Cl)c(Cl)c2)c2ccccc21 (centres undefined)" class_assignment="condition met"
molecule=COc1ccc(N2CCN(c3nc(-c4ccccc4)c(C#N)c(=O)[nH]3)CC2)cc1 class_assignment="condition met"

###

Test system: SK-OV-3 ovarian
TEST_PROTOCOL: NCI-60 one-dose screen, 48 h
CONDITION_SUMMARY: 10 µM
This is part of a sample that, as a whole, favours compounds with a hit. Of some 83,000 tested, about 20% had one in any assay. Activity calls are given as the source filed them. Rule for the calls: active = growth percent below 10; inactive = the rest.
Outcome codes: 1 = active, -1 = inactive

molecule="CCC1(C)OC(=O)NC1=O (configuration not stated)" class_assignment=-1
molecule=O=C(NCCc1nccs1)c1cnc2c(S)cccc2c1 class_assignment=-1
molecule=N=C(N)c1ccc(-c2ccc(-c3ccccc3)s2)s1 class_assignment=1
molecule="CCN1CCOC1C(C)C (configuration not stated)" class_assignment=-1
molecule=COc1cc(C(=O)n2nc(N)c3c(C)cc(C)nc32)cc(OC)c1OC class_assignment=-1
molecule=CCOC(=O)c1sc(Nc2ncccn2)nc1-c1ccccn1 class_assignment=-1
molecule=Cc1nc2cc(-n3c(-c4ccc(F)cc4)nc4ccccc4c3=O)ccc2n1Cc1ccccc1 class_assignment=-1
molecule=N#Cc1ccc(-n2cnc(NC(=O)[C@H]3CCN(C#N)C3)c2)cc1 class_assignment=-1
molecule=CNC(=O)c1cc(Oc2ccc(NC(=O)Nc3ccc(Cl)c(OC4CCCCC4)c3)c(F)c2)ccn1 class_assignment=-1
molecule=O=S(=O)(NCCO)c1ccc(OCCOc2ccc(S(=O)(=O)NCCO)cc2)cc1 class_assignment=-1
molecule=Cc1nc(Nc2nc3ccccc3o2)nc(-c2cccc([N+](=O)[O-])c2)c1C(=O)Nc1ccc(F)c(Cl)c1 class_assignment=-1
molecule=O=C(Nc1ccc(Oc2ccc(Nc3nc4ccccc4s3)cc2)cc1)Nc1ccc(Cl)c(Cl)c1 class_assignment=-1
molecule=Cc1ccc([P+](Cc2ccc([N+](=O)[O-])cc2)(c2ccc(C)cc2)c2ccc(C)cc2)cc1 class_assignment=-1
molecule=O=C(COCc1c(-c2ccccc2)no[n+]1[O-])Nc1nc(-c2ccc(Cl)cc2)cs1 class_assignment=-1
molecule=COc1ccc2nc(/C=C/c3ccc(N(C)C)cc3)sc2c1 class_assignment=-1
molecule=CCN(CC)c1ccc(/C=C/C2=[N+](C)c3ccccc3C2(C)C)c(C)c1 class_assignment=1
molecule=COc1ccc(CSc2nc3cc(OC)c(OC)cc3c(=O)n2-c2ccc(OC)cc2OC)cc1 class_assignment=-1
molecule=CN(C)CCCN(Cc1ccccc1O)C(=S)Nc1ccc(Cl)cc1 class_assignment=-1
molecule=O=C(Nc1ccc(CN2CCOCC2)cc1)c1ccc(-c2cc(Cl)ccc2Cl)o1 class_assignment=-1
molecule=C#CCNCCCN1C(=O)c2ccc3c4c(ccc(c24)C1=O)C(=O)N(CCCNCC#C)C3=O class_assignment=1
molecule=CS(=O)(=O)Nc1ccc(Nc2c3ccccc3nc3cc(Cl)ccc23)cc1 class_assignment=-1
molecule=O=C(O)c1ccc(CNc2ccc(C(=O)CCl)cc2)cc1 class_assignment=-1
